- procedure.details: AUC (0 to t) in Sprague-Dawley rat at 1 mg/kg, iv measured upto 24 hrs by LC-MS analysis
- Type: ADME, organism-based
- details: in vivo
quantity.name: AUC(0-t) at 24 h (ng·h/mL)
// return numeric value only (unit: ng·h/mL, not printed)

Query: AUC(0-t) at 24 h; subject: `O=[N+]([O-])c1ccc(N2CCN(c3ccc(S(=O)(=O)NCc4ccccn4)cc3[N+](=O)[O-])CC2)cc1`
1110

====

- procedure.details: MRT (0 to t) in Sprague-Dawley rat at 1 mg/kg, iv measured upto 24 hrs by LC-MS analysis
- Type: ADME, organism-based
- details: in vivo
quantity.name: MRT last at 24 h (h)
// return numeric value only (unit: h, not printed)

Query: MRT last at 24 h; subject: `O=[N+]([O-])c1ccc(N2CCN(c3ccc(S(=O)(=O)NCc4ccccn4)cc3[N+](=O)[O-])CC2)cc1`
1.1
